Tested on: UACC-257
Test: NCI tumour cell line growth inhibition, 48 h
Calls of active or inactive are those of the source. Cut-off read from the data, not from the text of the source: active = GI50 up to about 1.1 µM and inactive = higher.
Measurement type: GI50

Worked set:
CCCS(=O)(=O)/C(=C(\c1ccc(Br)cc1)S(=O)(=O)CCC)c1ccc(Br)cc1; > 10 µM (inactive)
Clc1cccc(C2N3CCCCC3[C@@H]3c4[nH]c5ccccc5c4CCN23)c1 (stereo not given in full); 30.5 µM (inactive)
COC(=O)C1C2C=CC(C2)N1[C@@H](C)c1ccccc1 (stereo not given in full); > 100 µM (inactive)
O=C(N/C(=C\c1ccc([N+](=O)[O-])cc1)c1nc2ccccc2[nH]1)c1ccccc1; > 100 µM (inactive)

# input for lookup
The molecule Fc1ccc(F)c(C2SCc3nc4ccccc4n32)c1 (stereo not given) showed GI50 equal to 41.4 µM (inactive)

Values compiled from ChEMBL document CHEMBL1201862.
